Ref: patent US11434205B2

# Tested on: rats

compound	Minimal lethal dose
C#CC1(OC(=O)c2c(Cl)nc(Cl)n2[C@H](C)c2ccccc2)COC1 [Compound E148]	>10 mg/kg
C=C=CC1(OC(=O)c2cncn2[C@H](C)c2ccccc2)CCOCC1 [Compound D34]	>8 mg/kg
C=C=CC1(SC(=O)c2c(F)ncn2[C@H](C)c2ccccc2)CSC1 [Compound E90]	>1.5 mg/kg
CCC#CC(C)OC(=O)c1cncn1[C@H](C)c1ccccc1 (some centres unmarked) [Compound D36]	>4 mg/kg
C=C=CC1(OC(=O)c2cncn2[C@H](C)c2ccccc2)COC1 [Compound D21]	>1 mg/kg

---

# Tested on: rats
# Type: in vivo, rat
# condition.parameters: rats of the MAP/HR figures, 2×ED50, tail vein; same value in min
# Method: The Effects of the Compounds on the Circulatory Function were Measured in Rats Using a Small Animal Implanted Physiological Signal Telemetry System The anesthetic activity of the compounds was assessed in rats using a LORR assay and the up and down method was used to determine ED50. […] First, animal models were established. […] At least one week after surgery, data were recorded. […]
observation.type: recovery time of the test animals' righting reflex (min)

compound	target	unit.spec	data.value
COCC1(COC(=O)c2c(F)ncn2[C@H](C)c2ccccc2)CCC1 [Compound E2]	rats	min	2.15
CC(=O)COC(=O)c1cncn1[C@H](C)c1ccccc1	rats	min	2.0
CCCC1(COC(=O)c2cncn2[C@H](C)c2ccccc2)COC1	rats	min	1.35
